# TESTED_SYSTEM: canine CD3 on canine T cells (canine PBMC) (canine, UniProt P27597 22-202)
# Sequence (P27597 22-202 limits assumed, chain 1 of 3): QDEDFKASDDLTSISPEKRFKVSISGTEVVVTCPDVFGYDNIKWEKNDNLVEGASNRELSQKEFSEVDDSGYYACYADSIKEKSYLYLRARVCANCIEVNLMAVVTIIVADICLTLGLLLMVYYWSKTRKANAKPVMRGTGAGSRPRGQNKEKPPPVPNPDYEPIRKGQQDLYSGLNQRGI
# Sequence (chain, as listed by the source limits assumed, chain 2 of 3): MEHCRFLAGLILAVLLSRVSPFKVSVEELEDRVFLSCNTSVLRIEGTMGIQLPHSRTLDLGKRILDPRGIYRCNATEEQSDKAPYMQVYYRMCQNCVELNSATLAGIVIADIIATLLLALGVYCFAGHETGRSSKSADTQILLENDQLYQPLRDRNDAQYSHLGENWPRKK
# Sequence (chain, as listed by the source limits assumed, chain 3 of 3): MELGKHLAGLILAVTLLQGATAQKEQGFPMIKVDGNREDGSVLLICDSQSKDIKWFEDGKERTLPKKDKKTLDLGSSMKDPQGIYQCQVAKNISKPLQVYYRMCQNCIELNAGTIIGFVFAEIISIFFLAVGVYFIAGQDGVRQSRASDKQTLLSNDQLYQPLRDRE
# EXPERIMENTAL_PROTOCOL: cell-based or functional assay
Ki67 Proliferation, Day 6, IS reference
No unit in the answer, only the number.

Consider the worked cases shown below.
BINDER: PMX183 (monospecific anti-canine CD3, canine IgG-B effector function deficient Fc) (antibody, V domains shown) VH: ELTLQESGPGLVKPSQTLSLTCVVSGGSVTNSYYWNWIRQRPGRELEWMGYWTGGTKYNPAFQGRISISADTAKNQFSLQLTSMTTEDTAVYYCARDRDRRVPHAYGYWGQGTLVTVSS VL: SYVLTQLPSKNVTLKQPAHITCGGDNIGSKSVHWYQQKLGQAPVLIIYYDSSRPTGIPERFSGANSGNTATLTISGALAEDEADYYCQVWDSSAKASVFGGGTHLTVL
Ki67 Proliferation, Day 6, IS: 1.61
//
BINDER: PMX157 (monospecific anti-canine CD3, canine IgG-B effector function deficient Fc) (antibody, V domains shown) VH: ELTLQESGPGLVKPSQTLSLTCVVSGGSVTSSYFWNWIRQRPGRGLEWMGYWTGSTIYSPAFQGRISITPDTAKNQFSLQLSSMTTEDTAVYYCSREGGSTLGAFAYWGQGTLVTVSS VL: SYVLTQLPSKNVTLKQPAHITCGGDKIGSKSVHWYQQKLGQAPVLIIYYDSSRPTGIPERFSGANSGNTATLTISGALAEDEADYYCQVWDSSAKASVFGGGTHLTVL
Ki67 Proliferation, Day 6, IS: 1.24
//
BINDER: PMX177 (monospecific anti-canine CD3, canine IgG-B effector function deficient Fc) (antibody, V domains shown) VH: EVTLQESGPGLVKPSQTLSLTCVVSGGSVTSSFYWNWIRQRPGRGLEWMGYWTGSTNYNPAFQGRISITADTAKNQFSLHLGSMTTDDTAMYYCAREEGSWGRVYFDYWGQGTLVTVSS VL: SYVLTQLPSKNVTLKQPAHITCGGDNIGSKSVHWYQQKLGQAPVLIIYYDSSRPTGIPERFSGANSGNTATLTISGALAEDEADYYCQVWDSSTKTWVFGEGTQLTVL
Ki67 Proliferation, Day 6, IS: 1.41
//
BINDER: PMX196 (monospecific anti-canine CD3, canine IgG-B effector function deficient Fc) (antibody, V domains shown) VH: ELTLQESGPGLVKPSQTLSLTCVVSGGSVTSSYYWNWIRQRPGRGLEWMGYWTGSTIYNPAFQGRISITADTAKNQFSLQLSSMTTEDTAVYFCVRERRMAFGSWGQGTLVIVSS VL: SYVLTQLPSKSVTLKQPAHITCGGDNIGRKSVHWYQQKLGQAPVLIISFDNNRPTGIPERFSGANSGNTATLTISGALAEDEADYYCQVWDSSAKASVFGGGTHLTVL
Ki67 Proliferation, Day 6, IS: 0.92

Attention now shifts to the item below.
PMX166 (monospecific anti-canine CD3, canine IgG-B effector function deficient Fc) (antibody, V domains shown) VH: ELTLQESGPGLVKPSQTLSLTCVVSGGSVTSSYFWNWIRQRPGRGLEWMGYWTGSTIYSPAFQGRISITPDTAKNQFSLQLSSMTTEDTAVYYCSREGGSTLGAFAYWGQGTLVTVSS VL: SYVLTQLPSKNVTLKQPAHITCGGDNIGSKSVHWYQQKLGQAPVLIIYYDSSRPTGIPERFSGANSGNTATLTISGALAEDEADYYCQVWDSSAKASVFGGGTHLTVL yielded Ki67 Proliferation, Day 6, IS of 2.77
